B1: TPR t1 (parent)
chain: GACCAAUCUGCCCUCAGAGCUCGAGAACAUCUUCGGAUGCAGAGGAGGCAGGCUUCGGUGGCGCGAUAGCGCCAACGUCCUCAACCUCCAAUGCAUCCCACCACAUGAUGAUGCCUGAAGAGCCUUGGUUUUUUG

variants of: B1; experiment: polymerase ribozyme fitness, log enrichment relative to wild type (log ratio); higher = more active; in vitro selection for triplet polymerase activity
reported.endpoint: polymerase ribozyme fitness (log ratio)
One number for each entry.

Below are worked cases with known answers.
G17C C62G C64U A68U U81G C114G    -6.46
C70G U132G U133A    -2.52
A6C U30C G69A    -5.82
U38G A46U G77U C124U    -1.67
G48C C123U    -0.702
G57A G63U G122A    -2.81

Hi team, please reply with polymerase ribozyme fitness (log ratio) for each item in this list.
1. U7G U59G C62U A84C A90U A111U C115A
2. G36U C79U

Output line:
1: -5.26; 2: -1.62
